Parameter z-score: see the listing below.
protocolText: compound effects on differentiated 3T3-L1 adipocyte viability – cell-based, 3T3-L1 adipocytes, calcein-AM fluorescence, 48 h, basal, profiling panel (AID 1163); also: test concentration not given here
experimentalConditions: 3T3-L1 adipocytes viability, higher = more signal

compound	z-score
COc1ccc([Si](C)(C)[C@@H]2[C@@H](CCO)O[C@]3(C(=O)N(Cc4ccccc4)c4ccc(NC(=O)[C@H](C)O)cc43)[C@H]2C)cc1	0.641
CCOC(=O)C1=CC[C@@H](c2ccccc2F)N(S(=O)(=O)c2ccc(C)cc2)[C@H]1c1ccccc1	-0.815
CCOC(=O)C[C@H]1[C@H](OC(=O)c2cc3ccccc3oc2=O)[C@@H](NC(=O)c2ccc3ccccc3n2)c2cc(OCCCO)ccc2N1C(=O)Cc1ccc(OC)cc1	0.499
CO[C@H]1O[C@H](CO)[C@@H](OC(=O)Nc2ccc3c(c2)OCO3)[C@H](OC(=O)Nc2ccc3c(c2)OCO3)[C@@H]1OC(=O)Nc1ccc2c(c1)OCO2	0.0003
CCCCNC(=O)c1ccc(C#CC(C)(C)C)c(OC(C)=O)c1	1.75
[N-]=[N+]=Nc1ccccc1C[C@]1(C(=O)NCC(O)CO)COC(c2ccc(OCCCO)cc2)=N1 (stereo not given in full)	1.11
O[C@@H](Cc1ccccc1)[C@@H](/C=C/C1CC1)N(CC#Cc1ccccc1)Cc1ccccc1Br	-0.667
CO[C@H]1O[C@H](CO)[C@@H](OC(=O)CCc2ccccc2)[C@@H]2OC(=O)[C@@H](Cc3ccccc3)C/C=C/C[C@H](Cc3ccccc3)C(=O)O[C@@H]12	0.271
COc1ccc([Si](C)(C)[C@@H]2[C@@H](CCO)O[C@]3(C(=O)N(Cc4ccccc4)c4ccc(N5C(=O)c6cccc7cccc5c67)cc43)[C@H]2C)cc1	-0.384
COc1cc2c(cc1O)C(C1CC1)N(C)CC2 (stereo not given)	0.381
NC(=O)NCC#Cc1ccc2c(c1)[C@]1(C(=O)N2)[C@H](c2ccccc2OCCO)N2[C@H](c3ccccc3)[C@H](c3ccccc3)OC(=O)[C@H]2[C@@H]1C(=O)NC[C@H](O)c1ccccc1	0.37
COc1ccc(C#Cc2ccc3c(c2)[C@]2(C(=O)N3)[C@H](c3ccc(O)cc3)N3[C@H](c4ccccc4)[C@H](c4ccccc4)OC(=O)[C@H]3[C@@H]2C(=O)Nc2nc3ccccc3s2)cc1	1.89
C=CCNC(=O)[C@@H]1[C@H]2C(=O)O[C@H](c3ccccc3)[C@H](c3ccccc3)N2[C@H](c2ccccc2OCCO)[C@@]12C(=O)Nc1ccc(C#CCC(C(=O)OC)C(=O)OC)cc12	-0.695
COc1ccc(CCNC(=O)[C@@]2(Sc3ccc(C)cc3)CC(=O)N(Cc3ccccc3C(F)(F)F)[C@@H]2c2ccc(CO)cc2I)cc1	-0.178
O=C(Cc1ccccc1)[C@H]1C2C=CCCC(c3ccccc3)=C2CN1Cc1ccccc1 (stereo not given in full)	0.169
COCC(=C=CC[C@H](O)c1ccc(OCCO)cc1)CCO	0.156
COc1ccc([Si](C)(C)[C@@H]2[C@@H](CC(=O)N3CCC[C@H]3CO)O[C@]3(C(=O)N(Cc4cccc(N5C(=O)COc6ccccc65)c4)c4ccccc43)[C@H]2C)cc1	0.441
CCOC(=O)[C@@H]1CCCCN1C(=O)C(=O)OC	-0.116
N#Cc1ccc(NN2C(C(O)c3ccc(Br)cc3)C=CC3C(=O)N(c4ccccc4)C(=O)C32)cc1 (stereo not given)	0.0175
COc1ccc([Si](C)(C)[C@@H]2[C@@H](CCO)O[C@]3(C(=O)N(Cc4cccc(NC(=O)[C@H](C)O)c4)c4ccccc43)[C@H]2C)cc1	-0.578
C#Cc1cc2ccccc2oc1=O	-1.04
CC1=C2[C@@H](CCc3ccccc3)OB(O)C[C@@H]2[C@@H]2C(=O)N(Cc3ccccc3)C(=O)[C@@H]2C1	-0.351
NC(=O)NCC#Cc1ccc2c(c1)[C@]1(C(=O)N2)[C@H](c2ccccc2OCCO)N2[C@H](c3ccccc3)[C@H](c3ccccc3)OC(=O)[C@H]2[C@@H]1C(=O)O	-0.161
CC(C)[Si]1(C(C)C)OCc2cc(-c3ccc(-c4ccc(Cl)c(Cl)c4)o3)nc(-c3ccccc3)c21	0.369
COC(=O)c1c(CC[C@@H](CO)NC(=O)N[C@@H](C)Cn2cc(-c3ccccn3)nn2)oc(C(C)=O)c1C(=O)OC	0.526
CCCC=C(CCC)[C@@H](NS(=O)(=O)c1ccc(C(F)(F)F)cc1)c1ccccc1	-0.217
CCCCN1CC=CC23O[C@@H]4/C=C\CCC(C)OC(=O)C4[C@H]2C(=O)N(CCCO)[C@@H]3C1=O (stereo not given in full)	1.57
CC[C@@H]1C=C(C(=O)O)[C@H](c2ccc(C#N)cc2)N1S(=O)(=O)c1ccc(C)cc1	-0.364
O=C1N(Cc2ccccc2)c2ccccc2C[C@]12N=C(c1ccc(OCCCO)cc1)O[C@@H]2c1ccccc1	-0.372
O=C(O)[C@@H]1[C@@H]2C(=O)N(c3ccccc3)C(=O)[C@@H]2C[C@@H]1Sc1ccccc1	-0.832
